System: Wheat
assayProcedure: Pre-emergence herbicidal activity (Example 31)
Format: in vivo
Parameters: key: 0-3 scale: 0 = 0-25% damage, 3 = 75-99% kill, 3+ = 100% kill
conditionSummary: 5 kg/ha, after three weeks
The reader will find reported damage to plants, Wh values listed item by item below.

compound: COC(=O)C(C)Oc1ccc(Nc2ccc(Cl)cc2Cl)cc1 (stereo not shown) [Compound 22]
damage to plants, Wh: 0 (0 represents from 0 to 25% damage)

compound: COC(=O)C(C)Oc1ccc(Nc2ccc(Br)cc2[N+](=O)[O-])cc1 (stereo not shown) [Compound 29]
damage to plants, Wh: 1

compound: COC(=O)C(C)Oc1ccc(N(C)c2ccc(Cl)cc2Cl)cc1 (stereo not shown) [Compound 1]
damage to plants, Wh: 0 (0 represents from 0 to 25% damage)

compound: COC(=O)C(C)Oc1ccc(N(C)c2ccc(Cl)cc2)cc1 (stereo not shown) [Compound 13]
damage to plants, Wh: 0 (0 represents from 0 to 25% damage)
